Provide the reported IC50 of each item.
Molecular target: Dual specificity protein phosphatase CDC14A (Homo sapiens)
Sequence (Q9UNH5 whole entry): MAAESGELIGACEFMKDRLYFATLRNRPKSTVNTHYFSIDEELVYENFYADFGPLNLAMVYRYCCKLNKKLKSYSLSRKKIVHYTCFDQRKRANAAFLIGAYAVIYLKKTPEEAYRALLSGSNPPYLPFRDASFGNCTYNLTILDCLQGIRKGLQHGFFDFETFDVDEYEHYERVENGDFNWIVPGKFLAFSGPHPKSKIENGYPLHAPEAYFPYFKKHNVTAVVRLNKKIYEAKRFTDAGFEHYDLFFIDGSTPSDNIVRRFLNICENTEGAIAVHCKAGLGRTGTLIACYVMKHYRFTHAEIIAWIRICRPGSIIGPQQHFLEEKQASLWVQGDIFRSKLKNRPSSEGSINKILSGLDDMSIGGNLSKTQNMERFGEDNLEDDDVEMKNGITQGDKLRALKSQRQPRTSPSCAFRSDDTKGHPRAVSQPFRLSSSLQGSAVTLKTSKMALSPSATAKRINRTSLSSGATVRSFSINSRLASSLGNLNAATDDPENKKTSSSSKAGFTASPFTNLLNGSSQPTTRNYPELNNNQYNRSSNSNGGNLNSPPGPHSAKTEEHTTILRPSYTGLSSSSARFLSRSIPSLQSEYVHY

[ask] What IC50 value was documented for this molecule, O=C(Nc1cc(C(F)(F)F)cc(C(F)(F)F)c1)C(c1ccccc1)S(=O)(=O)O (centres undefined) ?
[reply] > 200 µM

[ask] What IC50 value was documented for this molecule, Cc1c(Br)cc(NC(=O)C(c2ccccc2)S(=O)(=O)O)cc1Br (centres undefined) ?
[reply] > 200 µM

[ask] What IC50 value was documented for this molecule, O=C(Nc1ccc(-n2ccnc2)cc1)C(c1ccccc1)S(=O)(=O)O (centres undefined) ?
[reply] > 100 µM

[ask] What IC50 value was documented for this molecule, O=C(Nc1nc2ccc([N+](=O)[O-])cc2s1)C(c1ccccc1)S(=O)(=O)O (centres undefined) ?
[reply] > 100 µM

----------
Provide the reported pIC50 of each item.
pIC50: −log10 of the molar value.

[ask] Requested read-out pIC50, target or system UniProt P51452, entry O=C(Nc1cc(C(F)(F)F)cc(C(F)(F)F)c1)C(c1ccccc1)S(=O)(=O)O (centres undefined)
Sequence (P51452 whole entry): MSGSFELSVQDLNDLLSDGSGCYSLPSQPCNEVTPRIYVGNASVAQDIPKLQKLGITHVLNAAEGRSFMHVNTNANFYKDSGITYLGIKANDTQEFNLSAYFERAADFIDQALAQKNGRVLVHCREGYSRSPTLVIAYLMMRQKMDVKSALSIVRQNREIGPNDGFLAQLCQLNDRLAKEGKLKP
[reply] < 3.70

[ask] Requested read-out pIC50, target or system UniProt P51452, entry Cc1c(Br)cc(NC(=O)C(c2ccccc2)S(=O)(=O)O)cc1Br (centres undefined)
[reply] < 3.70

[ask] Requested read-out pIC50, target or system UniProt P51452, entry O=C(Nc1nc2ccc([N+](=O)[O-])cc2s1)C(c1ccccc1)S(=O)(=O)O (centres undefined)
[reply] < 4.00

[ask] Requested read-out pIC50, target or system UniProt P51452, entry O=C(Nc1ccc(-n2ccnc2)cc1)C(c1ccccc1)S(=O)(=O)O (centres undefined)
[reply] < 4.00

----------
Provide the reported Ki of each item.
molecular target: Low molecular weight phosphotyrosine protein phosphatase (Homo sapiens, UniProt P24666); assay: Competitive inhibition of His-tagged LMW-PTP isoform A (unknown origin) expressed in Escherichia coli BL21 cells using para-nitrophenyl phosphate as substrate by Lineweaver-Burk plot analysis
Sequence (P24666 whole entry, canonical isoform): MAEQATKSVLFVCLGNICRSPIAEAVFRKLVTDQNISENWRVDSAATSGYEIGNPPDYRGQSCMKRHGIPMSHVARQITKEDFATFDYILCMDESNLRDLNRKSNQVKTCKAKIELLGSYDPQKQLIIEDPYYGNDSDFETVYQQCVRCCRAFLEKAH

[ask] What Ki value was documented for this compound, O=C(Nc1nc2ccccc2s1)C(c1ccccc1)S(=O)(=O)O (configuration not stated) ?
[reply] 3.2 µM

[ask] What Ki value was documented for this compound, O=C(Nc1nc2ccc([N+](=O)[O-])cc2s1)C(c1ccccc1)S(=O)(=O)O (configuration not stated) ?
[reply] 1 µM
